experiment: qHTS Assay for Lipid Storage Modulators in Drosophila S3 Cells; settings: BODIPY lipid droplet fluorescence, 18-24 h, cells fed with added oleic acid; series mostly up to 46.1 µM
Among all 320,000 compounds or so, about 2,100 (0.66%) were called active. Another 53% or so got no clear call; they are omitted. Calls come from the whole dose curve; as a rule, active = well fitted inhibition curve with a large enough effect in the signal ratio, with a control signal flat (not every such curve was filed as active); inconclusive = small, poorly fitted or top-dose-only effect, or effect the other way, or a change in a side signal; inactive = flat fitted curve, though single readings scatter; the % refers to the signal ratio. Shown is part of a subset that was picked to be rich in actives.
Entry note: the call must match one of True = active, False = inactive

I would be grateful if you could indicate the recorded call for CC1(c2ccc(OCC#N)cc2)C=C(c2ccc(OCC#N)cc2)n2nc(C(F)(F)F)nc2N1 (centres undefined) .
False

I would be grateful if you could indicate the recorded call for `CN1CCC(N(C)C(=S)NC(=O)C23CC4CC(CC(C4)C2)C3)CC1` .
False

I would be grateful if you could indicate the recorded call for CCN(C(=O)COC(=O)c1ccc(Cl)c(N)c1)C1CCS(=O)(=O)C1 (centres undefined) .
False

I would be grateful if you could indicate the recorded call for `CC(=O)COc1ccc2c(-c3ccccc3)cc(=O)oc2c1C` .
False

I would be grateful if you could indicate the recorded call for `O=C(NCc1cccc(Cl)c1)c1cccc(C(F)(F)F)c1` .
False

I would be grateful if you could indicate the recorded call for O=C(COC(=O)c1ccc(Br)c(S(=O)(=O)N2CCOCC2)c1)NCC1CCCO1 (centres undefined) .
True

I would be grateful if you could indicate the recorded call for `N#Cc1ccc(CN2CCN(C(=O)CCNS(=O)(=O)c3ccc(F)c(Cl)c3)CC2)cc1` .
True

I would be grateful if you could indicate the recorded call for `CC(=O)c1ccc(NC(=S)N2CCC(Cc3ccccc3)CC2)cc1` .
False

I would be grateful if you could indicate the recorded call for `O=C(Nc1cccc(C(F)(F)F)c1)c1ccc(-n2cncn2)nc1` .
False

I would be grateful if you could indicate the recorded call for CCc1cc2c(-c3ccccc3)cc(=O)oc2cc1OC(C)C(=O)NCC1CCC(C(=O)O)CC1 (centres undefined) .
False

I would be grateful if you could indicate the recorded call for `O=C1NCCN1C(=O)c1cccc(Cl)c1` .
False

I would be grateful if you could indicate the recorded call for `CC(=O)c1c(C)[nH]c(C(=O)Nc2nc(C)cs2)c1C` .
False

I would be grateful if you could indicate the recorded call for `CCN(c1ccc(NC(=O)COC(=O)c2ccc(C)c(S(=O)(=O)N3CCOCC3)c2)cc1)C(C)C` .
True

I would be grateful if you could indicate the recorded call for `Fc1cccc(COc2ccccc2CNc2ccccc2)c1` .
False
